Just for reference, the supplement of paper PMC8728848 is where these values come from.

Recorded measurements of glycan array binding signal (z-score), one per entry
# TGT: Neu5Ac9Ac(a2-6)Gal(b1-4)GlcNAc
# EXPERIMENT_DESCRIPTION: glycan array binding signal (z-score within array); higher = stronger binding
# CONDITION_LABEL: glycan notation: IUPAC condensed, linker removed
The full list was thinned out, with the strongest signals kept by preference.
VALUE_TYPE: glycan array binding signal (z-score)

BINDER | VALUE_REPORTED
STA (Solanum tuberosum) (protein) NASAPLPYPQCGLKKGGGKCIKTGECCSIWGWCGTTSDYCAPGYCQKQCPGPYPQGRCGWQANGKSCPTGTGQCCSNAGWCGTTSDYCAPNNCQSQCKLPPPPPSPPPPPPSPPPPSPPPPPPSPPPPSPSPPPPPPSPPPPSPPPPSPPPPSPPPPPSPSPPPPPPSPPPPPPPLPYPQCGMKKGGGKCIKTGECCSIWGWCGTTSKYCSPGYCQMQCPDPYPEGRCGWQANGKSCPTGTGQCCSNAGWCGTTSAYCAPVNCQAQCNTTTLTSPIKNRMRGIESFMLNVV | -0.498
LlpA (Arthrobacter sp) (protein) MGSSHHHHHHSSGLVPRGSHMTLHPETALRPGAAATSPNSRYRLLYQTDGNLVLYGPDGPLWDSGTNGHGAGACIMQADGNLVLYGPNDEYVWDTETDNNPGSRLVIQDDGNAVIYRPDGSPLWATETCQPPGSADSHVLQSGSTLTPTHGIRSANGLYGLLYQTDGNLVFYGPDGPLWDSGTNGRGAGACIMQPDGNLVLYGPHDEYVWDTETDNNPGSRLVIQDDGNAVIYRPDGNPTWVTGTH | 0.62
SBD-G4S3-Fc (protein) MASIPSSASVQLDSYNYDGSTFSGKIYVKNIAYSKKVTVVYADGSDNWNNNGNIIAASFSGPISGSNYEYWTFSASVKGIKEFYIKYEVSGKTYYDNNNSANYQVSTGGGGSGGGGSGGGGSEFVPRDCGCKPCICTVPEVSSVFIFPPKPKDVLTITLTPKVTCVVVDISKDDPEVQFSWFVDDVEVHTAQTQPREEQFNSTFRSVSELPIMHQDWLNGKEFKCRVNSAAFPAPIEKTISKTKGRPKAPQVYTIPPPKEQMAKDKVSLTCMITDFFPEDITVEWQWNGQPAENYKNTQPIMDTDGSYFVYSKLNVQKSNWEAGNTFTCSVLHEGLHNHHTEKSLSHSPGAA | 0.039
CD23 (Homo sapiens) (protein) MELQVSSGFVCNTCPEKWINFQRKCYYFGKGTKQWVHARYACDDMEGQLVSIHSPEEQDFLTKHASHTGSWIGLRNLDLKGEFIWVDGSHVDYSNWAPGEPTSRSQGEDCVMMRGSGRWNDAFCDRKLGAWVCDRLATCTPPASEGSAESMGPDSRPDPDGRLPTPSAPLHS | 1.43
Gal 1 (Canis lupus) (protein) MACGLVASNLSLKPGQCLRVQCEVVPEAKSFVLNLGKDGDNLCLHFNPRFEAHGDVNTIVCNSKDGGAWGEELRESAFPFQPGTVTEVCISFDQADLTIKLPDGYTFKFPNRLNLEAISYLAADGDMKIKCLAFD | -0.303
Onconase (Rana pipiens), P22069 (protein) QDWLTFQKKHITNTRDVDCDNIMSTNLFHCKDKNTFIYSRPEPVKAICKGIIASKNVLTTSEFYLSDCNVTSRPCKYKLKKSTNKFCVTCENQAPVHFVGVGSC | -0.006
UEA-I (Ulex europaeus), P22972 (protein) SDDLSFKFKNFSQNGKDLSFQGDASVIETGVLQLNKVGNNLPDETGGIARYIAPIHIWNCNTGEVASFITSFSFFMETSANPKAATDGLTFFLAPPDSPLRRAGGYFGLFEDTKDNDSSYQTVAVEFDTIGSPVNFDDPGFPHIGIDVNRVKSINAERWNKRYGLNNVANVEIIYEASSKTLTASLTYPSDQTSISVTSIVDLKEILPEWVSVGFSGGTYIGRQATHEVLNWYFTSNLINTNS | -0.244
